B1: H2-Kb / Ed10 (parent complex)
chain 1: GEQVEQRPPHLSVREGDSAFIICTYTDSATAYFYWYKQEPGAGLQLLMSVFSNVDRKEEQGLTVLLNKKDKRLSLNLTAAHPGDSAVYFCAVRGTGYQNFYFGKGTSLTVIP
chain 2: AQTIHQWPVAEIKAVGSPLSLGCTIKGKSSPNLYWYWQATGGTLQQLFYSITVGQVESVVQLNLSASRPKDDQFILSTEKLLLSHSGFYLCAWSPGYEQYFGPGTRLTVL
chain 3: not shown
chain 4: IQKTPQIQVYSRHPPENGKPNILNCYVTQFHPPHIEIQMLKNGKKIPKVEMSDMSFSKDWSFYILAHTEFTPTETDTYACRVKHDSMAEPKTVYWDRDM
chain 5: SIINFEKL

# Variants of: B1
# method.summary: % of reporter cells activated (NFAT-GFP), raw; note: test concentration or dose not given here
Threshold 0.8. ratio to parent below it: yes. ratio to parent at it or above: no.

Does this variant meet the criterion ratio to parent < 0.8? chain 5 L8H no

Does this variant meet the criterion ratio to parent < 0.8? chain 5 F5L no

Does this variant meet the criterion ratio to parent < 0.8? chain 5 S1E no

Does this variant meet the criterion ratio to parent < 0.8? chain 5 E6A yes

Does this variant meet the criterion ratio to parent < 0.8? chain 5 K7M yes

Does this variant meet the criterion ratio to parent < 0.8? chain 5 E6N yes

Does this variant meet the criterion ratio to parent < 0.8? chain 5 N4A yes

Does this variant meet the criterion ratio to parent < 0.8? chain 5 I3C no

Does this variant meet the criterion ratio to parent < 0.8? chain 5 N4D no

Does this variant meet the criterion ratio to parent < 0.8? chain 5 K7V yes

Does this variant meet the criterion ratio to parent < 0.8? chain 5 I3E no

Does this variant meet the criterion ratio to parent < 0.8? chain 5 S1P no

Does this variant meet the criterion ratio to parent < 0.8? chain 5 L8F no

Does this variant meet the criterion ratio to parent < 0.8? chain 5 S1F yes

Does this variant meet the criterion ratio to parent < 0.8? chain 5 S1V no

Does this variant meet the criterion ratio to parent < 0.8? chain 5 L8I no

Does this variant meet the criterion ratio to parent < 0.8? chain 5 N4L yes

Does this variant meet the criterion ratio to parent < 0.8? chain 5 K7R yes

Does this variant meet the criterion ratio to parent < 0.8? chain 5 I2F no

Does this variant meet the criterion ratio to parent < 0.8? chain 5 L8N no

Does this variant meet the criterion ratio to parent < 0.8? chain 5 I2N no

Does this variant meet the criterion ratio to parent < 0.8? chain 5 I3F yes

Does this variant meet the criterion ratio to parent < 0.8? chain 5 K7L yes

Does this variant meet the criterion ratio to parent < 0.8? chain 5 I3R yes

Does this variant meet the criterion ratio to parent < 0.8? chain 5 E6K no

Does this variant meet the criterion ratio to parent < 0.8? chain 5 I2R yes

Does this variant meet the criterion ratio to parent < 0.8? chain 5 F5G yes

Does this variant meet the criterion ratio to parent < 0.8? chain 5 I2P no

Does this variant meet the criterion ratio to parent < 0.8? chain 5 L8V yes

Does this variant meet the criterion ratio to parent < 0.8? chain 5 I2K no

Does this variant meet the criterion ratio to parent < 0.8? chain 5 F5V yes

Does this variant meet the criterion ratio to parent < 0.8? chain 5 L8Y no

Does this variant meet the criterion ratio to parent < 0.8? chain 5 F5Y no

Does this variant meet the criterion ratio to parent < 0.8? chain 5 F5T yes

Does this variant meet the criterion ratio to parent < 0.8? chain 5 N4W yes

Does this variant meet the criterion ratio to parent < 0.8? chain 5 I2W yes

Does this variant meet the criterion ratio to parent < 0.8? chain 5 E6H yes

Does this variant meet the criterion ratio to parent < 0.8? chain 5 S1Q no

Does this variant meet the criterion ratio to parent < 0.8? chain 5 F5H no

Does this variant meet the criterion ratio to parent < 0.8? chain 5 I3W yes

Does this variant meet the criterion ratio to parent < 0.8? chain 5 N4T yes

Does this variant meet the criterion ratio to parent < 0.8? chain 5 I2V no

Does this variant meet the criterion ratio to parent < 0.8? chain 5 N4G yes

Does this variant meet the criterion ratio to parent < 0.8? chain 5 K7Y yes

Does this variant meet the criterion ratio to parent < 0.8? chain 5 S1R yes

Does this variant meet the criterion ratio to parent < 0.8? chain 5 L8P no

Does this variant meet the criterion ratio to parent < 0.8? chain 5 E6V yes

Does this variant meet the criterion ratio to parent < 0.8? chain 5 N4Y yes

Does this variant meet the criterion ratio to parent < 0.8? chain 5 I3G yes

Does this variant meet the criterion ratio to parent < 0.8? chain 5 I3V no

Does this variant meet the criterion ratio to parent < 0.8? chain 5 I2G no

Does this variant meet the criterion ratio to parent < 0.8? chain 5 N4F yes

Does this variant meet the criterion ratio to parent < 0.8? chain 5 S1H no
